Listing of recorded log10 of IC50 by entry.
molecular target: PARP-1 enzyme (Homo sapiens); construct: made in house; experiment: In vitro filtration assay for PARP-1 inhibitory activity; type: biochemical; conditions: nicked DNA activated PARP-1, [32P]-NAD, histones; read-out: In vitro filtration assay pIC50 (converted)
Sequence (P09874 whole entry): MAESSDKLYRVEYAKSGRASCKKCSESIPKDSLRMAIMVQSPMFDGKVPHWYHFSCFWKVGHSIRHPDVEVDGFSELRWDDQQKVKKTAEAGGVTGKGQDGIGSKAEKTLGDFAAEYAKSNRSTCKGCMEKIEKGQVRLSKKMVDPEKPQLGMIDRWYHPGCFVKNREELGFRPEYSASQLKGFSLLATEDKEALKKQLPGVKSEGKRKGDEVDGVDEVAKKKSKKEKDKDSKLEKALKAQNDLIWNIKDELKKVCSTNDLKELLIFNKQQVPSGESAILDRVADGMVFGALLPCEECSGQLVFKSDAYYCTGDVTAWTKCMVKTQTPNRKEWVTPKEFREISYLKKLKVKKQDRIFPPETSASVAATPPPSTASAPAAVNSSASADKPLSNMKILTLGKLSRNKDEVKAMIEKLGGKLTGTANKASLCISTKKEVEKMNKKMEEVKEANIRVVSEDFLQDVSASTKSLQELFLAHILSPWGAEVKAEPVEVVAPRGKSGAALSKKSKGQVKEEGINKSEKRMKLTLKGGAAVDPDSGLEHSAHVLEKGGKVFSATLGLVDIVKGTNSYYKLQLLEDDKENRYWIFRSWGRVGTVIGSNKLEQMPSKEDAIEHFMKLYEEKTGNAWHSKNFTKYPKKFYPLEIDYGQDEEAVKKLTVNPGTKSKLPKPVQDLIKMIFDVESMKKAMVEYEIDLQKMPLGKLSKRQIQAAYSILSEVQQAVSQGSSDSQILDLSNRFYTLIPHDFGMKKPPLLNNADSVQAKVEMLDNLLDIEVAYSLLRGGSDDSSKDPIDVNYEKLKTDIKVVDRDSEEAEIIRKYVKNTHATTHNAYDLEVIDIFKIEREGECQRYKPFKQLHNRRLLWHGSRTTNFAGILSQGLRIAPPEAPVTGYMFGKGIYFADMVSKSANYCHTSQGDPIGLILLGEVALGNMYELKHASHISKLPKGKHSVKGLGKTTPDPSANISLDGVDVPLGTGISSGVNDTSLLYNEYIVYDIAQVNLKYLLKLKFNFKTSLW
Short version: log10 scale, IC50, µM.

Completed entries (count: 4):
compound | target-or-system | experimental-endpoint | meas-value
CCc1cc2cc([C@@H](C3CCCCC3)N3CCN(CCOC)CC3)ccc2[nH]c1=O | PARP-1 enzyme (Homo sapiens) | log10 of IC50 | 0.96
CCc1cc2cc(C(O)CN3CCCCC3)ccc2[nH]c1=O (centres unmarked) | PARP-1 enzyme (Homo sapiens) | log10 of IC50 | -0.46
CCc1cc2cc(C(c3cccnc3)N3CCC(=O)CC3)ccc2[nH]c1=O (centres unmarked) | PARP-1 enzyme (Homo sapiens) | log10 of IC50 | 0.07
CCc1cc2cc(C(C3CC=CCC3)N3CCC(=O)CC3)ccc2[nH]c1=O (centres unmarked) | PARP-1 enzyme (Homo sapiens) | log10 of IC50 | 0.12

Next item in the queue.
**Q:** Which log10 of IC50 is listed for CCc1cc2cc(C(O)C3CCN(Cc4ccccc4)CC3)ccc2[nH]c1=O (centres unmarked) ?
**A:** 0.34

The measurements presented in this section are drawn from patent US7652014B2.
